Molecular target: human CCR8 (human, UniProt P51685 1-355)
Test: cell-based or functional assay
Parameter: hCCL1 (100 nM) residual response, Protocol #3, mAb 0.5 µg/mL (%)
Number in %, nothing else.

The cases that follow already have their hCCL1 (100 nM) residual response, Protocol #3, mAb 0.5 µg/mL on record.
| Binder | Recorded measurement |
| --- | --- |
| 3-50 (antibody, V domains shown) VH: EVQLQQSGPELVKPGASVKISCKASVYSFTGSYMHWVKQSHVKSLEWIGRINPYNGATSYNQNFKDKASLTVDKSSSTAYMELHSLTSEDSAVYYCATTLLRLLDYWGQGTTLTVSS VL: DIVMTQAAFSNPVTLGTSASISCRSSKSLLHSNGITYLYWYLQKPGQSPQLLIYQMSNLASGVPDRFSSSGSGTDFTLRISRVEAEDVGVYYCAQNLELPWTFGGGTKLEIK | 81 |
| 3-5 (antibody, V domains shown) VH: EVQLLESGGGLVQPKGSLKLSCAASGFTFNPYAMNWVRQAPGRGLEWVARIRSKSNNYATYYADSVKDRFTISRDDSQDMLYLQMNNLKTEDTAMYYCVRGREAYYRYDGDYYAMDYWGQGTSVTVSS VL: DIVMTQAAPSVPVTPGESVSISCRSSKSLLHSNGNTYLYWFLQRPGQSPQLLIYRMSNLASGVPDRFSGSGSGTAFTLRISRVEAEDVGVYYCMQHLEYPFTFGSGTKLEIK | 57 |

Next binder, please.
Given the binder 3-28 (antibody, V domains shown) VH: EVQLQQSGPELLKPGTSVKISCTTSGYTFSDYTLHWVKQSHGKSLEWIGGITPKNGDTRYDPRFKDKATLTIDKSSSAAYMELRSLTSEDSAVYYCARVARFYGVSPYAMDYWGQGASVTVSS VL: DVVMTQTPLSLPVSLGDQASISCRCTQSLLHSNGDTYLHWYLQKPGQSPKLLIYKVSNRFSGVPDRFSGSGSGTDFTLEITRVEAEDLGVYFCSQTTHVPYTFGGGTKLEIK , what is its reported hCCL1 (100 nM) residual response, Protocol #3, mAb 0.5 µg/mL?
64

These entries and their values trace back to patent US20260234276A1.
